Data origin, for the record: patent US20100215579A1

Property: % dose/organ; scope: individual compounds
protocol.description: Biodistribution in ICR mice after an iv injection
Assay type: in vivo
measurement.parameters: Skin, 30 min after iv injection
Give your result in % dose/organ as a bare value.

Query block: Could you tell me which % dose/organ is on file for "CNc1ccc(-c2ccc3cc(OCCOCCOCCF)ccc3c2)cc1" ?
Result block: 7.08

Next:
Query block: Could you tell me which % dose/organ is on file for CNc1ccc2cc(-c3ccc(OCCOCCOCC[18F])cc3)ccc2c1 [[^18F]19a] ?
Result block: 4.93

Query block: Could you tell me which % dose/organ is on file for CNc1ccc(-c2ccc3nc(OCCOCCOCC[18F])ccc3c2)cc1 [[^18F]34a] ?
Result block: 3.70

Query block: Could you tell me which % dose/organ is on file for CN(C)c1ccc(-c2ccc3nc(OCCOCCOCC[18F])ccc3c2)cc1 [[^18F]32a] ?
Result block: 3.86

----------
protocol.description: Biodistribution in ICR mice after an iv injection
Assay type: in vivo
measurement.parameters: Bone, 1 hr after iv injection
quantity.name: % dose/g (% dose/g)
Give your result in % dose/g as a bare value.

# annotated cases, reported % dose/g shown
Query block: Could you tell me which % dose/g is on file for CNc1ccc(-c2ccc3nc(OCCOCCOCC[18F])ccc3c2)cc1 [[^18F]34a] ?
Result block: 1.49

Query block: Could you tell me which % dose/g is on file for CN(C)c1ccc(-c2ccc3nc(OCCOCCOCC[18F])ccc3c2)cc1 [[^18F]32a] ?
Result block: 1.11

Query block: Could you tell me which % dose/g is on file for CNc1ccc2cc(-c3ccc(OCCOCCOCC[18F])cc3)ccc2c1 [[^18F]19a] ?
Result block: 0.82

Next compound, please.
Query block: Could you tell me which % dose/g is on file for "CNc1ccc(-c2ccc3cc(OCCOCCOCCF)ccc3c2)cc1" ?
Result block: 1.19

----------
protocol.description: Biodistribution in ICR mice after an iv injection
Assay type: in vivo
measurement.parameters: Lung, 2 hr after iv injection
quantity.name: % dose/g (% dose/g)
Give your result in % dose/g as a bare value.

# annotated cases, reported % dose/g shown
Query block: Could you tell me which % dose/g is on file for CN(C)c1ccc(-c2ccc3nc(OCCOCCOCC[18F])ccc3c2)cc1 [[^18F]32a] ?
Result block: 1.43

Query block: Could you tell me which % dose/g is on file for CNc1ccc(-c2ccc3nc(OCCOCCOCC[18F])ccc3c2)cc1 [[^18F]34a] ?
Result block: 1.96

Next:
Query block: Could you tell me which % dose/g is on file for CNc1ccc2cc(-c3ccc(OCCOCCOCC[18F])cc3)ccc2c1 [[^18F]19a] ?
Result block: 2.48

Query block: Could you tell me which % dose/g is on file for "CNc1ccc(-c2ccc3cc(OCCOCCOCCF)ccc3c2)cc1" ?
Result block: 2.44

----------
Property: % dose/organ; scope: individual compounds
protocol.description: Biodistribution in ICR mice after an iv injection
Format: in vivo
measurement.parameters: Lung, 1 hr after iv injection
Give your result in % dose/organ as a bare value.

Query block: Could you tell me which % dose/organ is on file for CNc1ccc(-c2ccc3nc(OCCOCCOCC[18F])ccc3c2)cc1 [[^18F]34a] ?
Result block: 0.48

Next:
Query block: Could you tell me which % dose/organ is on file for CNc1ccc2cc(-c3ccc(OCCOCCOCC[18F])cc3)ccc2c1 [[^18F]19a] ?
Result block: 0.41

Query block: Could you tell me which % dose/organ is on file for CN(C)c1ccc(-c2ccc3nc(OCCOCCOCC[18F])ccc3c2)cc1 [[^18F]32a] ?
Result block: 0.40

Query block: Could you tell me which % dose/organ is on file for "CNc1ccc(-c2ccc3cc(OCCOCCOCCF)ccc3c2)cc1" ?
Result block: 0.41

----------
assay.system: amyloid plaques (Homo sapiens, UniProt P05067)
Construct: fibrillary Aβ plaques consisting predominately of aggregates of Aβ40 and Aβ42 peptides
Sequence (P05067 672-713 limits assumed): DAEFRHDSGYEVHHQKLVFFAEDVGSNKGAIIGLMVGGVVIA
Sequence (P05067 672-711 limits assumed): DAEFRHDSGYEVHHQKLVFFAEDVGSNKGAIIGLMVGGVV
protocol.description: Ki values of Phen-Nap, Nap-Phen derivatives (Ki binding data)
quantity.name: Ki (nM)
Give your result in nM as a bare value.

# annotated cases, reported Ki shown
Query block: Could you tell me which Ki is on file for Oc1ccc(-c2ccc3cc(OCCOCCOCCF)ccc3c2)cc1 [Compound 26] ?
Result block: 16.5

Query block: Could you tell me which Ki is on file for CNc1ccc2cc(-c3ccc(OCCOCCOCCO)cc3)ccc2c1 [Compound 19b] ?
Result block: 6

Next compound, please.
Query block: Could you tell me which Ki is on file for Oc1ccc2cc(-c3ccc(OCCOCCOCCF)cc3)ccc2c1 [Compound 28] ?
Result block: 16

----------
protocol.description: Biodistribution in ICR mice after an iv injection
Type: in vivo
measurement.parameters: Muscle, 2 hr after iv injection
quantity.name: % dose/organ (% dose/organ)
Give your result in % dose/organ as a bare value.

# annotated cases, reported % dose/organ shown
Query block: Could you tell me which % dose/organ is on file for CN(C)c1ccc(-c2ccc3nc(OCCOCCOCC[18F])ccc3c2)cc1 [[^18F]32a] ?
Result block: 8.16

Query block: Could you tell me which % dose/organ is on file for "CNc1ccc(-c2ccc3cc(OCCOCCOCCF)ccc3c2)cc1" ?
Result block: 9.00

Next compound, please.
Query block: Could you tell me which % dose/organ is on file for CNc1ccc2cc(-c3ccc(OCCOCCOCC[18F])cc3)ccc2c1 [[^18F]19a] ?
Result block: 6.02
